Test system: morningglory
Assay: Test A postemergence
Assay type: in vivo, Ipomoea spp.
Settings: 1000 g ai/ha, 0 to 100 scale, 0 no effect, 100 complete control
Measured Plant response rating, Morningglory by item

What reported Plant response rating, Morningglory corresponds to CC(=O)Oc1cccc(Oc2ncc(Cl)cn2)c1-n1cc(Br)cn1 [Compound 67] on morningglory?
10

N#Cc1cn(-c2c(Br)cccc2Oc2ncc(Cl)cn2)nn1 [Compound 116] , same question.
100

Can you check Clc1cnc(Oc2cccc(Br)c2-n2cc(Br)cn2)nc1 [Compound 65] next?
100

Now this one: Oc1cccc(Oc2ncc(Cl)cn2)c1-n1cc(Cl)cn1 [Compound 229]
0
